IC50 values, listed per item
# System: IDH1 R132H (Homo sapiens, UniProt O75874, R132H)
# Sequence (O75874 whole entry R132H): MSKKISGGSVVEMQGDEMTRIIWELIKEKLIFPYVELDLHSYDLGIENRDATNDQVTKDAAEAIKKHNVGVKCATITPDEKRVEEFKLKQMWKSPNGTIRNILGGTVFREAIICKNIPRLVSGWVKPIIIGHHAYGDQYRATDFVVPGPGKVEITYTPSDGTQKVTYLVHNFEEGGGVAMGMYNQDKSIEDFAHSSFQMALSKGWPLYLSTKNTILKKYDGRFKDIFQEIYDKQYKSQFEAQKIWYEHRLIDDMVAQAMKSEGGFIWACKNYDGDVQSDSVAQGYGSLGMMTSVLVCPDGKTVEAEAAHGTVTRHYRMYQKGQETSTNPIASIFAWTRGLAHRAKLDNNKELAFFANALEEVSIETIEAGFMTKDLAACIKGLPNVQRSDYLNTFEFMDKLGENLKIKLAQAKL
# Protocol Summary: In vitro NADPH depletion assay for IDH1m R132H inhibitors
# Protocol Conditions: enzyme, diaphorase/resazurin readout, read-out: IDH R132H IC50
Readout Kind: IC50

Molecule	System	Readout Value
COC(=O)N[C@H](C(=O)N(c1cccc(F)c1)C(C(=O)NC1CC(F)(F)C1)c1ccccc1Cl)[C@@H](C)O (stereo partly shown) [Compound 99]	IDH1 R132H (Homo sapiens, UniProt O75874, R132H)	500 to 1000 nM
COC(=O)NCC(=O)N(c1cccc(F)c1)C(C(=O)NC1CC(F)(F)C1)c1c(Cl)cccc1Cl (stereo not shown) [Compound 76]	IDH1 R132H (Homo sapiens, UniProt O75874, R132H)	100 to 500 nM
C=CC(=O)Nc1cccc(N(C(=O)Cc2cccnc2)C(C(=O)NC2CC(F)(F)C2)c2ccccc2Cl)c1 (stereo not shown) [Compound 88]	IDH1 R132H (Homo sapiens, UniProt O75874, R132H)	500 to 1000 nM
O=C(NC1CC(F)(F)C1)C(c1ccccc1Cl)N(C(=O)Cn1cnc(Cl)c1Cl)c1cccc(F)c1 (stereo not shown) [Compound 35]	IDH1 R132H (Homo sapiens, UniProt O75874, R132H)	≤ 100 nM
Cc1ccccc1[C@@H](C(=O)NC1CCCCC1)N(C(=O)[C@H]1CCCN1S(C)(=O)=O)c1cccc(F)c1 [Compound 2]	IDH1 R132H (Homo sapiens, UniProt O75874, R132H)	100 to 500 nM
COC(=O)N1CCN(C(C)=O)C[C@H]1C(=O)N(c1cccc(F)c1)[C@H](C(=O)NC1CC(F)(F)C1)c1ccccc1Cl [Compound 68]	IDH1 R132H (Homo sapiens, UniProt O75874, R132H)	≤ 100 nM
O=C(NC1CC(F)(F)C1)[C@@H](c1ccccc1Cl)N(C(=O)[C@H](CO)Nc1ncccn1)c1cccc(F)c1 [Compound 108]	IDH1 R132H (Homo sapiens, UniProt O75874, R132H)	100 to 500 nM

====

Collected IC50 values appear next to each entry.
# System: IDH1 R132C (Homo sapiens, UniProt O75874, R132C)
# Sequence (O75874 whole entry R132C): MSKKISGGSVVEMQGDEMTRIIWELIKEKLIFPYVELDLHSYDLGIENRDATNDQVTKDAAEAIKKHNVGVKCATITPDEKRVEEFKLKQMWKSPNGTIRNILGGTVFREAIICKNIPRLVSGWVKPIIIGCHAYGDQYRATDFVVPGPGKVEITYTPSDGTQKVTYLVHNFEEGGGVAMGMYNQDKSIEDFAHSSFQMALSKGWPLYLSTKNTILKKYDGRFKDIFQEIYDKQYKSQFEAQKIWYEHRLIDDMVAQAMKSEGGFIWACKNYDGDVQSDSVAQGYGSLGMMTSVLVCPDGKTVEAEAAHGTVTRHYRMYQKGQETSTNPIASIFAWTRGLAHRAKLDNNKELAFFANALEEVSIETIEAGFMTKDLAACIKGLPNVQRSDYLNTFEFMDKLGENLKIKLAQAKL
# Protocol Summary: In vitro NADPH depletion assay for IDH1m R132C inhibitors
# Format: biochemical
# Protocol Conditions: enzyme, diaphorase/resazurin readout, read-out: IDH R132C IC50

Compound	IC50
O=C(NC1CC(F)(F)C1)C(c1ccccc1Cl)N(C(=O)Cc1cccnc1)c1cccc(F)c1 (stereo not shown)	≤ 100 nM
O=C(NC1CCC(F)(F)CC1)C(c1ccccc1Cl)N(C(=O)CNc1ncccc1F)c1cccc(F)c1 (stereo not shown)	≤ 100 nM
COC(=O)NCC(=O)N(c1cccc(F)c1)[C@H](C(=O)N[C@H]1CCCCC1(F)F)c1ccccc1Cl	≤ 100 nM
COC(=O)N1CCN(C(C)=O)C[C@H]1C(=O)N(c1cccc(F)c1)[C@@H](C(=O)NC1CC(F)(F)C1)c1ccccc1Cl	100 to 500 nM

====

# System: IDH1 R132H (Homo sapiens, UniProt O75874, R132H)
# Protocol Summary: In vitro NADPH depletion assay for IDH1m R132H inhibitors
# Assay type: biochemical
# Protocol Conditions: enzyme, diaphorase/resazurin readout, read-out: IDH R132H IC50

Molecule	IC50
Cc1ccccc1C(C(=O)NC1CC(F)(F)C1)N(C(=O)Cn1ccnc1C)c1cccc(F)c1 (stereo not shown) [Compound 18]	500 to 1000 nM
COC(=O)N1CCN(C)C[C@H]1C(=O)N(c1cccc(F)c1)[C@H](C(=O)NC1CC(F)(F)C1)c1ccccc1Cl [Compound 80]	100 to 500 nM
COC(=O)N1C[C@@H](O)C[C@H]1C(=O)N(c1cccc(F)c1)[C@H](C(=O)NC1CC(F)(F)C1)c1ccccc1Cl [Compound 52]	≤ 100 nM
COC(=O)NCC(=O)N(c1cccc(F)c1)[C@H](C(=O)N[C@@H]1CCC(F)(F)C1)c1ccccc1Cl [Compound 98]	100 to 500 nM
